System: Staphylococcus aureus
test: Antibacterial activity against methicillin-resistant Staphylococcus aureus OM584
Format: functional
readout.type: MIC (µg/mL)
Report only the number, with the unit µg/mL understood.

>>> print(df.to_string())
                                   molecule  scale_unit  observed_result
0  Fc1ccc(Nc2c3ccccc3nc3c2[nH]c2ccccc23)cc1       µg/mL                8

// sample `Clc1ccc(Nc2c3ccccc3nc3c2[nH]c2ccccc23)cc1` , its MIC was 4

Record `Clc1ccccc1Nc1c2ccccc2nc2c1[nH]c1ccccc12` , field MIC: 4

* * *

Test system: Staphylococcus aureus
test: Antibacterial activity against methicillin-resistant Staphylococcus aureus OM584
Type: functional
readout.type: MIC (µg/mL)
Quick reminder: number only, in µg/mL, skip the unit.

Use these answered entries as a reference point.
In [3]: df
Out[3]:
                                   molecule  observed_result
0  Cc1ccc2[nH]c3c(Nc4ccc(O)cc4)c4ccccc4nc3c2c1                2
1   c1ccc(Nc2c3ccccc3nc3c2[nH]c2ccccc23)cc1                4
2  Cn1c2ccccc2c2nc3ccccc3c(Nc3ccc(O)cc3)c21                8

Looking up `COc1ccc2[nH]c3c(Nc4ccc(O)cc4)c4ccccc4nc3c2c1` , I see its MIC listed as 2

MIC for CC1c2ccccc2-c2nc3ccccc3c(Nc3ccc(O)cc3)c21 (configuration not stated) is 4

# molecule `Oc1ccc(Nc2c3ccccc3nc3c2oc2ccccc23)cc1` ; its MIC = 2

Item: `COc1cc(O)ccc1Nc1c2ccccc2nc2c1[nH]c1ccccc12` | MIC: 16

Sure, the documented MIC for `COc1ccc(Nc2c3ccccc3nc3c2[nH]c2ccccc23)cc1` is 8

Data point: `Cc1ccc(Nc2c3ccccc3nc3c2[nH]c2ccccc23)cc1` ; MIC = 62.5

Given item `COc1cc(NS(C)(=O)=O)ccc1Nc1c2ccccc2nc2c1[nH]c1ccccc12` , the value recorded as its MIC is 16

The reported value for `Clc1cccc(Nc2c3ccccc3nc3c2[nH]c2ccccc23)c1` in terms of MIC is 125

Item: `Oc1ccc(Nc2c3ccccc3nc3c2[nH]c2ccccc23)cc1` | MIC: 2

Lookup result for `Cl.Oc1ccccc1Nc1c2ccccc2nc2c1[nH]c1ccccc12` ; measured MIC: 16

Form: molecule = `CC(=O)Oc1ccc(Nc2c3ccccc3nc3c2[nH]c2ccccc23)cc1.Cl` ; MIC = 8

Kindly note the recorded MIC for `Oc1ccc(Nc2c3ccccc3nc3c2[nH]c2ccc(Cl)cc23)cc1` , which is 4

# molecule `Oc1cccc(Nc2c3ccccc3nc3c2[nH]c2ccccc23)c1` ; its MIC = 8
